I'd be grateful if you could share measured melting point for these entries.

Given item Cn1ccnc1Sc1ccc(Nc2c(C#N)cnc3cc(-c4ccc(CN5CCOCC5)nc4)ccc23)cc1Cl , the value recorded as its melting point is 233 to 235 °C

Record summary for Cn1nc(O)ccc1=S : reported melting point = 203 °C

Summary for this molecule, Cc1nn(-c2c(Cl)cc(C(F)(F)F)cc2Cl)nc1CBr : melting point is 98 to 100 °C

Entry O=Cc1cccc(OCC(O)CN2C(=O)c3ccccc3C2=O)c1 (stereo unspecified) ; melting point = 122 to 126 °C

Input Cn1cc(-c2cnccn2)cc(Cl)c1=O . Output melting point: 197 to 198 °C

Quick note, melting point for Cc1nccn1-c1ccc(COc2cccc(C3(C#N)CCOCC3)c2)cc1 landed at 153 to 154 °C

Form: molecule = CCn1c(C)nc(N2CCc3ccccc3CC2)c(C#N)c1=O ; melting point = 154 to 158 °C

Lookup result for C[Si](C)(C)CCCCCNC(=O)n1cc(F)c(=O)[nH]c1=O ; measured melting point: 118 to 119 °C

melting point reading for CCC(CC)Cn1nc(-c2ccc(O)cc2O)c2cccc(C(F)(F)F)c21 : 89 to 90 °C

According to the records, this molecule Nc1ccc2ccc(Oc3ccccc3Br)nc2n1 displays melting point of 206 °C

Summary for this molecule, COc1cc(COc2nn(-c3ccccc3)cc2/C=C/c2csc(C)n2)ccc1OCc1nc(-c2ccc(CC(=O)O)cc2)oc1C : melting point is 181 to 182 °C

Form: molecule = C=C1c2ccn3c(C)c(C)nc3c2N[C@H](c2ccccc2)[C@H]1O ; melting point = 199 to 202 °C

Short answer for ClCCc1c[nH]c(-c2ccc(OCc3ccccc3)cc2)n1 : melting point was 163 to 165 °C

Field melting point (entry Cc1cc(Cl)ccc1-c1nc(=O)c2ccccc2s1 ) reads 134 °C

The measured melting point associated with COC(=O)C1=C(CF)NC(C)=C(C(=O)OC(C)C)C1c1cccc(Cl)c1C (stereo unspecified) reads 73 to 75 °C

The molecule listed as CN1CCCC1CCNc1nccc(Oc2ccc(NC(=O)c3cc(F)cc(N4CCOCC4)c3)c3ccccc23)n1 (stereo unspecified) has a reported melting point of 100 to 101 °C

// melting point value for CC(Cn1ccnc1)Cn1cnc2ccc(Br)cc2c1=O (stereo unspecified) : 159 to 162 °C

The value of melting point measured for the molecule COC(=O)C=Cc1cc2cc(NC(=O)c3cc4ccccc4o3)ccc2[nH]1 turned out to be 259 to 260 °C

Kindly note the recorded melting point for Cc1cccc(-c2ccnc3c(C(=O)N=CN(C)C)cnn23)c1 , which is 165 to 166 °C

Entry CN(C)c1ccc2c(c1Br)C(=O)C1(CC1)O2 ; melting point = 79 to 81 °C

Looking up Brc1c(C2=NOCCS2)sc2ccccc12 , I found its melting point recorded as 80 to 85 °C
